Measured Activity by item
- test system: Transcriptional activator protein LasR (Pseudomonas aeruginosa (strain ATCC 15692 / PAO1 / 1C / PRS 101 / LMG12228))
- experimental protocol: Inhibition of OdDHL-induced LasR activation in Pseudomonas aeruginosa PAKR02 harboring lasB::luxCDABE gene assessed as remaining Las activity at 10^-4 M after 24 hrs by bioluminescence assay
Quick note: give the figure in %, leave out the unit.

# compound, value unit, Activity
measured = [
    ("CCCCCCCCNC(=O)CC(=O)N[C@H]1CCOC1=O", "%", 20),
    ("CCCCCCCCNC(=O)CC(=O)Nc1cccc(C(N)=O)c1", "%", 59),
    ("CCCCCCCCCC(=O)CC(=O)N[C@H]1CC(=O)NC1=O", "%", 82),
    ("CCCCCCCCN(C)C(=O)CC(=O)N[C@H]1CCOC1=O", "%", 60),
    ("CCCCCCCCNC(=O)CC(=O)Nc1nccs1", "%", 64),
]

Now, please, on to the next compound.
Item under review: "CCCCCCCCNC(=O)CS(=O)(=O)N[C@H]1CCOC1=O" . Reported Activity?
86

----------
- test system: Transcriptional activator protein LasR (Pseudomonas aeruginosa (strain ATCC 15692 / PAO1 / 1C / PRS 101 / LMG12228)) (UniProt P25084)
- Sequence (P25084 whole entry): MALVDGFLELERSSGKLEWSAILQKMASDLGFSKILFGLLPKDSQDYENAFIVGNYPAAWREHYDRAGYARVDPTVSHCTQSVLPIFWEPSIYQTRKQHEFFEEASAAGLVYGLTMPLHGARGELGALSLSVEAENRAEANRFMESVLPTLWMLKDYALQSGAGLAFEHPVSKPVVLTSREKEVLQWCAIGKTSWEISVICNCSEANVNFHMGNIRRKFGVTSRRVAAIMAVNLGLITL
- experimental protocol: Induction of lasR-mediated quorum sensing in Pseudomonas aeruginosa PAKR02 harboring lasB::luxCDABE gene assessed as lasR-induction ratio at 10^-4 M after 24 hrs by bioluminescence assay relative to control
Entries are sorted into classes by Ratio as follows: lower band (below 0.9), central band (0.9 to below 1), upper band (1 or more)

As a guide, the following entries are already answered.
# compound structure string, label value
measured = [
    ("CCCCCCCCNC(=O)CC(=O)Nc1cc(Cl)ccc1O", "lower band"),
    ("CCCCCCCCC/C(O)=C1/C(=O)N[C@@H](CCO)C1=O", "central band"),
    ("CCCCCCCCNC(=O)CS(=O)(=O)N[C@H]1CCOC1=O", "upper band"),
]

Band of "CCOCCOCCNC(=O)CC(=O)N[C@@H]1CCC[C@@H]1O" ?
upper band

Input "CCCCCCCCCN(N)CC(=O)N[C@H]1CCOC1=O" ; output its category
upper band

----------
Measured Activity accompanies every entry in the list below.
- test system: Transcriptional activator protein LasR (Pseudomonas aeruginosa (strain ATCC 15692 / PAO1 / 1C / PRS 101 / LMG12228))
- experimental protocol: Inhibition of OdDHL-induced LasR activation in Pseudomonas aeruginosa PAKR02 harboring lasB::luxCDABE gene assessed as remaining Las activity at 10^-4 M after 24 hrs by bioluminescence assay
Kindly answer with a numeric value in %, unit omitted.

# compound, value unit, Activity
records = [
    ("CCCCCCCCCC(CC(=O)N[C@H]1CCOC1=O)OC(C)=O (mixture of isomers)", "%", 70),
]

# lookup: Activity of "CCCCCCCCNC(=O)CC(=O)Nc1ccccc1C(=O)N(C)C"
37

Give the measured Activity of "CCCCCCCCCN(O)CC(=O)N[C@H]1CCOC1=O" .
69

What value of Activity has been recorded for this entry: "CCCCCCCCNC(=O)CC(=O)Nc1ccccc1C(N)=O"
23

May I ask what Activity has been recorded for "CCCCCCCCNC(=O)CC(=O)Nc1cc(Cl)ccc1O" ?
66

Item "CCCCCCCCNS(=O)(=O)CC(=O)N[C@H]1CCOC1=O" has what recorded Activity?
101

Data origin: ChEMBL document CHEMBL1773053
